Tested on: HCC-2998 colon
Experiment: NCI tumour cell line growth inhibition, 48 h
Please provide measured GI50 for the entries that follow.

I'm hoping you can list GI50 for every molecule here, please.
1. Cc1cc(-c2ncc(-c3cccnc3)cc2/C=C/c2ccccc2)cnc1-c1cccnc1
2. N#Cc1c(-c2ccccc2)cc(-c2ccccc2)n(CC(=O)NO)c1=O
3. CCCC(c1nnnn1C1CCCCC1)N1CCN(C(=O)c2ccco2)CC1 (stereo not given)
4. FC(F)(F)c1ccc(-c2cnc(Cl)nc2NC2CCCCCC2)cc1
5. CCCCCCCCc1ccc(OCCOCC[N+](C)(C)CC)cc1 (tested in a mixture with another compound)
6. CC(C)(C)c1ccc(C(=O)Nc2sc3c(c2C#N)CCC(=O)C3)cc1
7. O=S1CCN(Cc2ccc(-c3ccc4ncnc(Nc5ccc(OCc6ccccc6)c(Cl)c5)c4c3)o2)CC1
8. Clc1ccc(CCC(Cn2ccnc2)Sc2c(Cl)cccc2Cl)cc1 (stereo not given)

Output line:
> 25.4 µM
3.74 µM
> 100 µM
> 100 µM
3.74 µM
1.25 µM
7.19 µM
2.85 µM

Record GI50 for all entries; do not skip any.
1. O=S1CCN(Cc2ccc(-c3ccc4ncnc(Nc5ccc(OCc6cccc(F)c6)c(Cl)c5)c4c3)o2)CC1
2. COc1ccc(C2CC(c3cc(Cl)c(C)cc3O)=NN2c2ccc(S(N)(=O)=O)cc2)cc1OC (stereo not given)

Output line:
["5.34 µM", "2.72 µM"]

###

Test system: HT29 colon
Assay: NCI tumour cell line growth inhibition, 48 h
Provide the recorded TGI for the entries that follow.

See these solved cases before continuing.
* CC(=O)c1sc2c(c1OC(=O)c1ccc(Cl)cc1Cl)c(=O)n(-c1ccccc1)c(=S)n2-c1ccccc1 | 3.01 µM
* COC(=O)C(CC(=O)c1ccccc1)c1ccccc1NC(C)=O (stereo not given) | > 100 µM
* COc1cc(Br)cc2cc(C3=CSC4=NCCN34)c(=O)oc12 | 34.7 µM
* O=CNCCCN1CCN(CCCNC=O)CC1 | > 100 µM
* Cn1c(=O)c2nc(N3CCOCC3)cnc2n(C)c1=O | > 100 µM
* CC(C)OC(=O)C1=C2c3ncccc3C(=O)N2[C@@H](Cl)[C@@H](Cl)[C@@H]1Cl | > 100 µM
* COC1CC2C3/C(=N/Nc4ccc([N+](=O)[O-])cc4[N+](=O)[O-])CCC2(C)C3C1 (stereo not given) | > 10 µM
* COC(=O)c1cc(-c2ccc(OC)c(OC)c2)oc1-c1ccc(OC)c(OC)c1 | > 100 µM

Field: TGI. Fill in for each record below.
1. CCOc1nc(OCC)nc(-c2cccn2-c2ccccc2)n1
2. c1ccc(CSc2nc(N3CCCCC3)c3cn[nH]c3n2)cc1

Output line:
1. > 100 µM
2. > 100 µM

###

Test system: MCF7 breast
Experiment: NCI tumour cell line growth inhibition, 48 h
For each entry below, report its TGI value.
Answers are plain numbers, in µM.

* CCCc1c(Cl)nc(Cl)nc1Cl | 16.3

Here is the next item to consider.
Input line: For MCF7 breast, give TGI of the listed compound: "O=C1/C(=C/c2ccc(Cl)cc2)COc2ccc(O)cc21"
Output line: 2.96

###

System: OVCAR-8 ovarian
Assay: NCI tumour cell line growth inhibition, 48 h
measureName: TGI

Past entries and their recorded results:
- O=C(NCCc1[nH]nc2c1C(=O)C=C(Nc1ccccc1)C2=O)OCc1ccccc1: > 100 µM
- N#CCCN(CCCN(C(=O)N(c1ccccc1)c1ccccc1)c1ccccc1)C(=O)Nc1ccccc1: > 100 µM
- COCN1C(=O)C2CC(/C=C/C(N)=O)=CN2C(=O)c2ccccc21 (stereo unspecified): > 100 µM
- N#C/C(=C\c1cc(F)cc(F)c1)c1ccccn1: 45.4 µM
- O=C(/C=C/c1ccsc1)c1ccc(Cl)cc1: > 100 µM

Input line: Respond only with TGI recorded for "COc1ccc(/C=C(\C#N)c2ccc(OC)cc2)cc1"
Output line: > 100 µM

###

Measured GI50 (MDA-MB-435)

* CCCCCCCCc1cc[n+](CC(=O)c2ccc(Br)cc2)cc1 | 1540 nM

Quick one: give me GI50 for each item below, same order please.
1. COc1ccc(/C=C(\C#N)c2ccc(OC)cc2)cc1
2. COc1ccc(/C=C/c2nnc(/C=C/c3ccc(OC)c(OC)c3)o2)cc1OC
3. COc1ccc(CCn2c3c(c4c(O)cccc42)C(=O)c2ccccc2-3)cc1OC

Output line:
1: 563 nM; 2: 929 nM; 3: 20000 nM

List GI50 for every entry below, keeping the order given.
1. O=S1CCN(Cc2ccc(-c3ccc4ncnc(Nc5ccc(OCc6cccc(F)c6)c(Cl)c5)c4c3)o2)CC1
2. c1ccc(-c2c(-c3ccccc3)[n+](Cc3ccc4ccccc4c3)c(-c3cccc4ccccc34)n2Cc2ccc3ccccc3c2)cc1
3. N#Cc1c(-c2ccccc2)cc(-c2ccccc2)n(CC(=O)NO)c1=O

Output line:
7100 nM
284 nM
3030 nM

###

Test system: K-562 leukemia
Assay: NCI tumour cell line growth inhibition, 48 h
Assign TGI to each entry below.

• Cc1ccc(NC(=O)OCC(COc2ccc(Cl)cc2)OC(=O)Nc2ccc(C)cc2)cc1 (stereo not given) = 60.4 µM

Hi, could you look up TGI for each item in my list?
1. ClCCC[Si]12OCCN(CCO1)CCO2
2. O=C(O/N=C1/CCCC/C1=C\c1ccccc1)c1ccc(Cl)c(Cl)c1
3. COC(=O)c1c(OC(C)=O)ccc2c1c1c(OC(C)=O)c3ccccc3c(OC(C)=O)c1n2C
4. N#C/C(=N/Nc1nc[nH]c1C(N)=O)C(=O)Nc1ccccc1
5. CS(=O)(=O)Nc1cc(-c2ccc3ncnc(Nc4ccc5c(cnn5Cc5cccc(F)c5)c4)c3c2)cnc1Cl
6. [O-]c1ccccc1/C=N/c1nccs1.[O-]c1ccccc1/C=N/c1nccs1.[O]=[U+2]=[O]
7. CCCCc1ccc(-n2c(C)c(COC(=O)NC)c(COC(=O)NC)c2C)cc1

Output line:
["> 100 µM", "34.5 µM", "43.2 µM", "> 100 µM", "> 100 µM", "> 100 µM", "> 100 µM"]

List reported TGI for each of these molecules:
1. COc1ccc(/C=C(\C#N)c2ccc(OC)cc2)cc1
2. Cc1c(C(=O)OCc2ccccc2)[n+](=O)c2ccccc2n1[O-]

Output line:
> 100 µM
> 100 µM

###

Test system: 786-0 renal
Assay: NCI tumour cell line growth inhibition, 48 h
measureName: TGI

* COc1ccc(=[O+]C)c2nssc1-2 | > 100 µM
* [O-]c1ccccc1/C=N/c1nccs1.[O-]c1ccccc1/C=N/c1nccs1.[O]=[U+2]=[O] | > 100 µM
* Cc1nnc(N)nc1C/C=C/C(Sc1ccc(Cl)cc1)c1ccccc1 (stereo unspecified) | 11.4 µM
* COc1ccc(/C=C/c2nnc(/C=C/c3ccc(OC)c(OC)c3)o2)cc1OC | > 100 µM
* COC(=O)/C(C#N)=C(\Nc1ccccc1)N1CCCC1 | > 100 µM
* O=C(NCCCCNC(=O)OCc1ccc2c(Cl)cc(Cl)c(O)c2n1)OCc1ccc2c(Cl)cc(Cl)c(O)c2n1 | > 100 µM

Provide TGI values for the following items, in order.
1. COc1ccc(C2N(c3ccc(F)c([N+](=O)[O-])c3)C(=O)N3C(c4ccc(OC)cc4)N(c4ccc(F)c([N+](=O)[O-])c4)C(=O)N23)cc1 (stereo unspecified)
2. COC(=O)CCCC(=O)NC1=C(Nc2ccc(OC)cc2)C(=O)c2ccccc2C1=O
3. O=c1c2ccccc2nc2n1CCc1c-2[nH]c2ccc(Br)cc12
4. CCC/C=C/C=C/C(=O)OC1C(C)C2(O)C3C=C(C)C(=O)C3CC(COC(C)=O)=CC2C2C(C)(C)C12OC(=O)C(C)C (stereo unspecified)
5. CC(C)C(=O)OCC1CCCN2CCCCC12 (stereo unspecified)
6. CC(=O)CC1(OC(=O)C2C(C=C(C)C)C2(C)C)C(=O)Nc2ccccc21 (stereo unspecified)

Output line:
1. > 100 µM
2. > 100 µM
3. > 100 µM
4. 23.1 µM
5. > 100 µM
6. > 100 µM

Please state, for each entry, its recorded TGI.
1. O=C(OC1CC(n2cc(F)c(=O)[nH]c2=O)OC1CSC(=O)c1ccccc1)c1ccccc1 (stereo unspecified)
2. CN(C)CC1CCC(=C2CCCC2)C1=O (stereo unspecified)
3. CCCC(c1nnnn1C1CCCCC1)N1CCN(C(=O)c2ccco2)CC1 (stereo unspecified)
4. NC(=O)SCC(=O)Nc1ccc2cccc3c2c1CC3
5. NS(=O)(=O)N(c1cc(C(F)(F)F)cc(C(F)(F)F)c1)C1CCN(Cc2ccc(F)cc2)CC1

Output line:
1: > 100 µM; 2: 19.7 µM; 3: > 100 µM; 4: 42.8 µM; 5: 23.5 µM

Look up TGI for the entries below, preserving their order.
1. C[n+]1c(-c2ccccc2)cc2/c(=C\c3ccccc3)c3ccccc3n21
2. CCN(Cc1ccncc1)c1ccc(CO)c(Cl)c1
3. C=CCCC1CCCNC1=S (stereo unspecified)
4. O=C1NC(N/N=C/c2c[nH]c3ccccc23)=N/C1=C\c1cccs1

Output line:
2.77 µM
> 100 µM
> 100 µM
> 100 µM
